Tested on: HIV-1IIIB
Assay: Drug combination anti-HIV-1 cytoprotection assay (MacSynergy II) in CEM-SS cells infected with HIV-1IIIB
Assay type: cell-based
Settings: in combination with Compound A, n = 3
observation_type: Mean Antagonism Volume (μM^2%)
Give a bare numeral; the unit μM^2% is implied.

Cc1cn([C@H]2C[C@H](N=[N+]=[N-])[C@@H](CO)O2)c(=O)[nH]c1=O [AZT, zidovudine]	−29.3

So, O=C1Nc2ccc(Cl)cc2[C@@](C#CC2CC2)(C(F)(F)F)O1 [EFV, efavirenz] ? Its Mean Antagonism Volume was −5.3

So, C[C@H](Cn1cnc2c(N)ncnc21)OCP(=O)(O)O [PMPA, tenofovir] ? Its Mean Antagonism Volume was −29.0

So, Cc1c(O)cccc1C(=O)N[C@@H](CSc1ccccc1)[C@H](O)CN1C[C@H]2CCCC[C@H]2C[C@H]1C(=O)NC(C)(C)C [NFV, nelfinavir] ? Its Mean Antagonism Volume was −17.3

So, CC(C)(C)NC(=O)[C@@H]1CN(Cc2cccnc2)CCN1C[C@@H](O)C[C@@H](Cc1ccccc1)C(=O)N[C@H]1c2ccccc2C[C@H]1O [IDV, indinavir] ? Its Mean Antagonism Volume was −18.7
